Hello, the source for this data is paper PMC10397247, in case you need it.

- studyTarget: T1, 4H2458-AA
- T1 chain: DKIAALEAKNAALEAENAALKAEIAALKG
- assayMethodText: two-hybrid library CCmax;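 also: natural log of median RNA to DNA barcode read ratio; higher means stronger binding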
- experimentalConditions: mean of both orientations
observedProperty: interaction score

INSERT INTO assay_data (binder, measured) VALUES
  ('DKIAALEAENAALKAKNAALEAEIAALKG [4H2290-AA]', -1.34),
  ('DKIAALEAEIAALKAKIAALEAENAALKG [4H2148-AA]', -1.46),
  ('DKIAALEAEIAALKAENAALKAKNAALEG [4H2143-AA]', -1.32),
  ('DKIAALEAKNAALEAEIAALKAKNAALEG [4H2447-AA]', -1.42),
  ('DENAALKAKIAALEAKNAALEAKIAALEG [4H1845-AA]', -1.6);
